Listing: Activity of selected compounds
Species: Rattus norvegicus
Test: Effect on electron transport protein complex 1 in Wistar-Han rat liver mitochondria using glutamate/malate as substrate assessed as phosphorylative lag phase at 6 ug/mg relative to control
Kindly answer with a numeric value in %, unit omitted.

Examples with answers:
Using known records, supply Activity for `C=C(C)[C@@H]1CC[C@]2(COC(=O)C[n+]3ccc(N(C)C)cc3)CC[C@]3(C)[C@H](CC[C@@H]4[C@@]5(C)CC[C@H](OC(=O)C[n+]6ccc(N(C)C)cc6)C(C)(C)[C@@H]5CC[C@]43C)[C@@H]12.[Br-].[Br-]` 46

Using known records, supply Activity for `C=C(C[n+]1ccc(N(C)C)cc1)[C@@H]1CC[C@]2(COC(=O)C[n+]3ccc(N(C)C)cc3)CC[C@]3(C)[C@H](CC[C@@H]4[C@@]5(C)CC[C@H](OC(=O)C[n+]6ccc(N(C)C)cc6)C(C)(C)[C@@H]5CC[C@]43C)[C@@H]12.[Br-].[Br-].[Br-]` 46.5

Using known records, supply Activity for `C=C(C)[C@@H]1CC[C@]2(COC(=O)C[n+]3ccc(N(C)C)cc3)CC[C@]3(C)[C@H](CC[C@@H]4[C@@]5(C)CC[C@H](O)C(C)(C)[C@@H]5CC[C@]43C)[C@@H]12` 31

Using known records, supply Activity for `C=C(C[n+]1ccc(N(C)C)cc1)[C@@H]1CC[C@]2(C(=O)O)CC[C@]3(C)[C@H](CC[C@@H]4[C@@]5(C)CC[C@H](O)C(C)(C)[C@@H]5CC[C@]43C)[C@@H]12.[Br-]` 63.3

Others:
Using known records, supply Activity for `C=C(C)[C@@H]1CC[C@]2(CO)CC[C@]3(C)[C@H](CC[C@@H]4[C@@]5(C)CC[C@H](OC(=O)C[n+]6ccc(N(C)C)cc6)C(C)(C)[C@@H]5CC[C@]43C)[C@@H]12.[Cl-]` 45
